biological target: Beta-secretase 1 (Homo sapiens, UniProt P56817); test: Inhibition of human BACE1 at 50 uM by FRET assay
Sequence (P56817 whole entry): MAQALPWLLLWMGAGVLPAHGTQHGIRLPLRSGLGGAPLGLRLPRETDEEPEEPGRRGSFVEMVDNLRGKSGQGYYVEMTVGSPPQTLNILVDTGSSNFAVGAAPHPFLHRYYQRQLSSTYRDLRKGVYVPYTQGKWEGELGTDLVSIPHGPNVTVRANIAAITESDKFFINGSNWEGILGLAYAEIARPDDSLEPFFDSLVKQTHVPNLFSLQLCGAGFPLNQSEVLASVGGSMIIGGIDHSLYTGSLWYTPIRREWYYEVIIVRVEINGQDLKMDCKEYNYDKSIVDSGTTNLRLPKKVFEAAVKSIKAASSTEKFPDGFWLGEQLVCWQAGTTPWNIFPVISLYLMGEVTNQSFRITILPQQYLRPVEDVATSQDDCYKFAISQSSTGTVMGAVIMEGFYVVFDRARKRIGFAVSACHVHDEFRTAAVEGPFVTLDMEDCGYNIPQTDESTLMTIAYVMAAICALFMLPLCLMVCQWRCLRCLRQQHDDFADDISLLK
Rule: inhibition under 80% gives -1, otherwise 1.

Below are worked cases with known answers.
> print(dat)
                         chemical.structure  label.value
1  O=C(CSc1nc2ccc(Nc3nc(N4CCOCC4)nc(N4CCOCC4)n3)cc2s1)Nc1ccccc1Cl           -1
2  O=C(CSc1nc2ccc(Nc3nc(N4CCOCC4)nc(N4CCOCC4)n3)cc2s1)NCc1ccccc1           -1
3  O=C(CSc1nc2ccc(Nc3nc(N4CCOCC4)nc(N4CCOCC4)n3)cc2s1)N1c2ccccc2CCc2ccccc21            1
4  O=C(CSc1nc2ccc(Nc3nc(N4CCOCC4)nc(N4CCOCC4)n3)cc2s1)Nc1cccc(C(F)(F)F)c1           -1
5  Cc1ccc(CNC(=O)CSc2nc3ccc(Nc4nc(N5CCOCC5)nc(N5CCOCC5)n4)cc3s2)cc1           -1
6  O=C(CSc1nc2ccc(Nc3nc(N4CCCC4)nc(N4CCCC4)n3)cc2s1)NCCOc1ccccc1            1
7  O=C(CSc1nc2ccc(Nc3nc(N4CCOCC4)nc(N4CCOCC4)n3)cc2s1)NCCOc1ccccc1           -1
8  CCOC(=O)CSc1nc2ccc(Nc3nc(N4CCCC4)nc(N4CCCC4)n3)cc2s1            1

For the next question, use this compound.
stdin: Check if inhibition >= 80% (inclusive). Item: O=C(CSc1nc2ccc(Nc3nc(N4CCCC4)nc(N4CCCC4)n3)cc2s1)NCc1ccccc1
stdout: 1
